Target: T1, Human CD98 ECD with C-terminal His-tag (human, UniProt P08195 105-529)
T1 construct: The entry includes the linker and the polyhistidine tag; also called huCD98 ECD
T1 sequence: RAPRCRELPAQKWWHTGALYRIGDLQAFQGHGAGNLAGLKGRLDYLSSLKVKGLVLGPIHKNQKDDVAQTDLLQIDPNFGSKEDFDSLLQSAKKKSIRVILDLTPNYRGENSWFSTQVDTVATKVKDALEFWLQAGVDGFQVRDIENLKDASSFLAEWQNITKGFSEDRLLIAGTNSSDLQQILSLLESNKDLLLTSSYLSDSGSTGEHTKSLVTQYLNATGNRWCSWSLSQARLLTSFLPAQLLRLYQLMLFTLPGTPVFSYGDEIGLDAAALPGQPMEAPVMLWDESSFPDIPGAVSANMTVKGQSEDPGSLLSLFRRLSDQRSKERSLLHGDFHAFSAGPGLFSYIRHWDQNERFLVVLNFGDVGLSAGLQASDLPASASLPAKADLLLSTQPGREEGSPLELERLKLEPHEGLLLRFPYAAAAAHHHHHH
Experiment: SPR (Biacore), antibody captured on anti-Fc surface, CD98 ECD in solution
pKd: −log10 of the molar value.
Criterion: pKd meeting or surpassing 9. Met: 1. Not met: -1.

binder	class-assignment
huAb15v3 (antibody, V domains shown, Humanized, further engineered clone of chAb15, converted to IgG and expressed as a full-length antibody) VH: EVQLVESGGGVVQPGRSLRLSCAASGFTFSDYTMAWVRQAPGKGLEWVATIIYSGRGTYYRDAVKGRFTISRDNSKSTLYLQMNSLRAEDTAVYYCARQSDDTYYYWGYFDYWGQGTMVTVSS VL: DIVMTQSPDSLAVSLGERATINCKSSQSLLFSGNQKNYLAWYQQKPGQSPKLLIYWASTRQSGVPDRFSGSGSGTDFTLTIRSLQAEDVAIYYCQQYYGSPYTFGQGTKLEIK	-1
huAb15v6 (antibody, V domains shown, Humanized, further engineered clone of chAb15, converted to IgG and expressed as a full-length antibody) VH: EVQLVESGGGVVQPGRSLRLSCAASGFTFSDYTMAWVRQAPGKGLEWVATIIYDARGTYYRDAVKGRFTISRDNSKSTLYLQMNSLRAEDTAVYYCARQSDDTYYYWGYFDYWGQGTMVTVSS VL: DIVMTQSPDSLAVSLGERATINCKSSQSLLFSGNQKNYLAWYQQKPGQSPKLLIYWASTRQSGVPDRFSGSGSGTDFTLTIRSLQAEDVAIYYCQQYYSSPYTFGQGTKLEIK	-1
huAb15v1 (antibody, V domains shown, Humanized, further engineered clone of chAb15, converted to IgG and expressed as a full-length antibody) VH: EVQLVESGGGVVQPGRSLRLSCAASGFTFSDYTMAWVRQAPGKGLEWVATIIYSGRGTYYRDAVKGRFTISRDNSKSTLYLQMNSLRAEDTAVYYCARQSDHTYYYWGYFDYWGQGTMVTVSS VL: DIVMTQSPDSLAVSLGERATINCKSSQSLLFSGNQKNYLAWYQQKPGQSPKLLIYWASTRQSGVPDRFSGSGSGTDFTLTIRSLQAEDVAIYYCQQYYDVPYTFGQGTKLEIK	1
huAb15v7 (antibody, V domains shown, Humanized, further engineered clone of chAb15, converted to IgG and expressed as a full-length antibody) VH: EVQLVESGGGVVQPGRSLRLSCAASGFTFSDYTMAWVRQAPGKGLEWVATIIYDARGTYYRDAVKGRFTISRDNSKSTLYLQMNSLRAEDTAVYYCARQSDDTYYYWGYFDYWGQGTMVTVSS VL: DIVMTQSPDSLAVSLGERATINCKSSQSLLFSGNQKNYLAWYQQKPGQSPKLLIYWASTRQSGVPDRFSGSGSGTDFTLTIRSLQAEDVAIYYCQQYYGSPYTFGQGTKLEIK	-1
